Conditions: in ethanol, 293.15 K

CHEMICAL_STRUCTURE | solubility (mole fraction)
C#C[C@]1(O)C=C[C@H]2[C@@H]3CCC4=CC(=O)CC[C@@H]4[C@H]3CC[C@@]21CC | 0.00473

* * *

Settings: in ethyl acetate, 313.15 K

CHEMICAL_STRUCTURE | solubility (mole fraction)
C#C[C@]1(O)C=C[C@H]2[C@@H]3CCC4=CC(=O)CC[C@@H]4[C@H]3CC[C@@]21CC | 0.0247

* * *

Details: in isopropyl acetate, 318.15 K

CHEMICAL_STRUCTURE | solubility (mole fraction)
C#C[C@]1(O)C=C[C@H]2[C@@H]3CCC4=CC(=O)CC[C@@H]4[C@H]3CC[C@@]21CC | 0.061
